Where do these numbers come from? They come from ChEMBL document CHEMBL1961873.

Molecular target: Tyrosine-protein kinase Tec (Homo sapiens);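 note: each value is the mean of the inhibition measurements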
Details: at 1 µM
Metric: inhibition (%)

compound=O=C(Nc1n[nH]c2nc(-c3ccco3)c(Br)cc12)C1CC1 unit_descriptor=% observed_value=9.1
compound=NS(=O)(=O)c1ccc(N/N=C2\C(=O)Nc3ccc(C(=O)NCCc4c[nH]cn4)cc32)cc1 unit_descriptor=% observed_value=12.1
compound="CC1=C(C(=O)Nc2ccc3[nH]ncc3c2)C(c2ccc3ccccc3c2)CC(=O)N1 (stereo not given)" unit_descriptor=% observed_value=9.73
compound=Cc1ccc(NC(=O)c2ccnc(N3CCCC3)c2)cc1-c1ccc(C(=O)NCC2CC2)cc1 unit_descriptor=% observed_value=3.83
compound=CCn1c(-c2nonc2N)nc2cncc(C(=O)N3CC[C@H](N)C3)c21 unit_descriptor=% observed_value=3.68
compound=CCCN1CCC=C(c2ccc(Nc3nc(Nc4ccccc4C(N)=O)c4cc[nH]c4n3)c(C)c2)C1 unit_descriptor=% observed_value=8.24
compound=O=C1Nc2ccc(C(=O)c3ccco3)cc2C1=Cc1cc(Cl)c(O)c(Cl)c1 unit_descriptor=% observed_value=9.55
compound=COc1ccc(-c2nn3ncccc3c2-c2ccnc(Nc3ccc(Cl)c(C(F)(F)F)c3)n2)cc1 unit_descriptor=% observed_value=1.86
compound=CN(C)c1cc2c(Nc3ccc4nc(Cc5ccccc5)[nH]c4c3)ncnc2cn1 unit_descriptor=% observed_value=11.9
compound=Nc1ncnc2occ(-c3ccc(NC(=O)Nc4cc(C(F)(F)F)cc(C(F)(F)F)c4)cc3)c12 unit_descriptor=% observed_value=6.33
